# experimental-system: Recombinant human LSD1 (Homo sapiens)
# protocol: LSD1 inhibition assay (HTRF LSD1 Histone H3K4 mono-demethylation assay, me1->me0)
# Type: biochemical
# applied-conditions: 20 nM recombinant human LSD1, 95 nM H3K4(me1) biotinylated peptide, 15 min preincubation, 60 min at 25° C., read-out: LSD1 inhibition IC50 (nM range)
measured-metric: IC50

Completed entries (count: 8):
> print(dat)
                                   molecule  measured.metric  measured.value
1  N#Cc1ccc(-c2cc(CC3CNC4(CC4)CO3)ccc2N2CCC2)cc1F (centres unmarked)             IC50       > 1000 nM
2  C[C@@]1(N)CCN(Cc2cccc(-c3ccc(C#N)c(F)c3)c2C2CC2)C1             IC50  100 to 1000 nM
3  N#Cc1ccc(-c2cccc(C[C@H]3CNCCO3)c2C2=CCOC2)cc1F (single isomer, unassigned)             IC50     10 to 25 nM
4  N#Cc1ccc(-c2cccc(CN3[C@@H]4CC[C@H]3C[C@H](N)C4)c2C2CC2)cc1F             IC50     10 to 25 nM
5  N#Cc1ccc(-c2cc(F)cc(CC3CNCCO3)c2-c2cnco2)cc1F (centres unmarked)             IC50    25 to 100 nM
6  N#Cc1ccc(-c2cc(CC3CN4CCC4CO3)ccc2N2CCC2)cc1F (centres unmarked)             IC50       > 1000 nM
7  COCc1cc(-c2ccc(CC3CNCCO3)cc2-c2ccc(C#N)c(F)c2)on1 (centres unmarked)             IC50  100 to 1000 nM
8  N#Cc1ccc(-c2ccc(F)c(CN3C[C@]4(N)CC[C@H]3C4)c2-c2cnco2)cc1F             IC50     10 to 25 nM

// sample `N#Cc1ccc(-c2cccc(CN3[C@@H]4CC[C@H]3[C@@H](N)C4)c2-c2ccns2)cc1F` , its IC50 was < 10 nM

Value of IC50 reported for the molecule N#Cc1ccc(-c2cc(CC3CNCCO3)ccc2C2COC2)cc1F (centres unmarked) is > 1000 nM

GET /value?item= CCN1CCN(c2ccc(CC3CNCCO3)cc2-c2ccc(C#N)c(F)c2)CC1 (centres unmarked) &field=IC50 returns 100 to 1000 nM

For reference, reported IC50 for N#Cc1ccc(-c2cccc(CC3CNCCO3)c2-c2ccncc2)cc1F (centres unmarked) stands at 100 to 1000 nM

get_value(item= COc1ccc(-c2ccc(CN3[C@@H]4CC[C@H]3[C@@H](N)C4)cc2-c2ccc(C#N)c(F)c2)cn1 (racemic) , readout=IC50) returns 10 to 25 nM

For reference, reported IC50 for Cn1nc2ccc(-c3ccc(CC4CNCCO4)cc3-c3ccc(C#N)c(F)c3)cc2c1Cl (centres unmarked) stands at 25 to 100 nM

Briefly, IC50 measured for `Cc1cc(CN2C[C@H]3C[C@@H]2CN3)c(C)c(-c2ccc(C#N)c(F)c2)c1` : 100 to 1000 nM

Query N#Cc1ccc(-c2cc(CC3CNCCO3)ccc2C2CCCC2)cc1 (centres unmarked) yields IC50 of > 1000 nM

The reported IC50 of the molecule COC1CN(c2ccc(CC3CNCCO3)cc2-c2ccc(C#N)c(F)c2)C1 (centres unmarked) was > 1000 nM

====

IC50 values by entry
# experimental-system: Recombinant human LSD1 (Homo sapiens, UniProt O60341)
# protocol: LSD1 inhibition assay (HTRF LSD1 Histone H3K4 mono-demethylation assay, me1->me0)
# Assay type: biochemical
# applied-conditions: 20 nM recombinant human LSD1, 95 nM H3K4(me1) biotinylated peptide, 15 min preincubation, 60 min at 25° C., read-out: LSD1 inhibition IC50 (nM range)

Solved entries (count: 2):
> print(dat)
                                   molecule                       experimental.system  measured.value
1  N#Cc1ccc(-c2cc(CN3C[C@]4(N)CC[C@H]3C4)ccc2C2CC2)cc1F  Recombinant human LSD1 (Homo sapiens, UniProt O60341)    25 to 100 nM
2  CNC1CCN(c2cccc(-c3ccc(C#N)c(F)c3)c2-c2ccns2)CC1  Recombinant human LSD1 (Homo sapiens, UniProt O60341)     10 to 25 nM

So for COC1(C)CCN(c2ccc(CN3[C@@H]4CC[C@H]3[C@@H](N)C4)cc2-c2ccc(C#N)c(F)c2)CC1 (racemic) , the logged IC50 turned out to be 10 to 25 nM

response.value for CCc1cc(CC2CNCCO2)cc(-c2ccc(C#N)cc2)c1Cl (stereo not shown) (field: IC50) = > 1000 nM

Data point: N#Cc1ccc(-c2cc(CC3CNCCO3)ccc2N2CC(c3ccc(C4CC4)nc3)C2)cc1F (stereo not shown) ; IC50 = 100 to 1000 nM

response.value for `N#Cc1ccc(-c2cccc(CN3CC4CC(C3)N4)c2C2CC2)cc1F` (field: IC50) = 10 to 25 nM

Quick note, IC50 for CC1(C)CN(c2ccc(CN3[C@@H]4CC[C@H]3[C@@H](N)C4)cc2-c2ccc(C#N)c(F)c2)C1 (racemic) landed at 10 to 25 nM

====

Below, each entry is listed with its recorded IC50.
# experimental-system: Recombinant human LSD1 (Homo sapiens, UniProt O60341)
# protocol: LSD1 inhibition assay (HTRF LSD1 Histone H3K4 mono-demethylation assay, me1->me0)
# Type: biochemical
# applied-conditions: 20 nM recombinant human LSD1, 95 nM H3K4(me1) biotinylated peptide, 15 min preincubation, 60 min at 25° C., read-out: LSD1 inhibition IC50 (nM range)

> print(dat)
                                   compound  measured.metric  measured.value
1  C[C@@H]1CC[C@H](N)CN1Cc1cccc(-c2ccc(C#N)c(F)c2)c1Cl             IC50       > 1000 nM
2  N#Cc1ccc(-c2cccc(CN3[C@@H]4CC[C@H]3[C@@H](N)C4)c2C(F)(F)F)cc1F (racemic)             IC50    25 to 100 nM
3  N#Cc1ccc(-c2cccc(CN3[C@H]4CC[C@@H]3[C@H](N)C4)c2CC2CC2)cc1F (single isomer, unassigned)             IC50    25 to 100 nM
4  N#Cc1ccc(-c2cc(CC3CNCCO3)ccc2N2CCC(c3ncccn3)CC2)cc1F (stereo not shown)             IC50  100 to 1000 nM
5  N#Cc1ccc(-c2cccc(CN3C4CCC3CNC4)c2C2CC2)cc1F             IC50    25 to 100 nM

Per the records, this compound ( N#Cc1ccc(-c2cc(CC3CNCCO3)ccc2C2CCOCC2)cc1F (stereo not shown) ) has IC50 equal to > 1000 nM

Lab book: IC50 of CC1(C)CNCC(Cc2ccc(N3CCC3)c(-c3ccc(C#N)c(F)c3)c2)O1 (stereo not shown) noted as 100 to 1000 nM

Entry under test: N#Cc1ccc(-c2cc(F)cc(CC3CNCCO3)c2-c2cncs2)cc1F (stereo not shown) . Its IC50 was 10 to 25 nM

Input N#Cc1ccc(-c2cccc(CN3[C@@H]4CC[C@H]3[C@H](N)C4)c2C2CC2)cc1F (racemic) . Output IC50: 25 to 100 nM

// field: IC50; key: Cc1cc(CNCC2CCCN(C)C2)c(Cl)c(-c2ccc(C#N)c(F)c2)c1 (stereo not shown) ; value = 100 to 1000 nM

====

# experimental-system: Recombinant human LSD1 (Homo sapiens)
# protocol: LSD1 inhibition assay (HTRF LSD1 Histone H3K4 mono-demethylation assay, me1->me0)
# Type: biochemical
# applied-conditions: LSD1 inhibition IC50 (nM range), 20 nM recombinant human LSD1, 95 nM H3K4(me1) biotinylated peptide, 15 min preincubation, 60 min at 25° C.
measured-metric: IC50

Recorded result, `CN1CC2(C1)CN(Cc1cccc(-c3ccc(C#N)c(F)c3)c1Cl)C2` , IC50: > 1000 nM

====

Quick reference for IC50 among some molecules
# experimental-system: Recombinant human LSD1 (Homo sapiens)
# protocol: LSD1 inhibition assay (HTRF LSD1 Histone H3K4 mono-demethylation assay, me1->me0)
# Assay type: biochemical
# applied-conditions: 20 nM recombinant human LSD1, 95 nM H3K4(me1) biotinylated peptide, 15 min preincubation, 60 min at 25° C., read-out: LSD1 inhibition IC50 (nM range)

> print(dat)
                                   molecule  measured.value
1  N#Cc1ccc(-c2cccc(CC3CNCCO3)c2-c2ocnc2F)cc1F (stereo not shown)     10 to 25 nM

Kindly note the recorded IC50 for Cc1cc(CN2[C@@H]3CC[C@H]2[C@@H](N)C3)c(C2CC2)c(-c2ccc(C#N)c(F)c2)c1 (racemic) , which is 10 to 25 nM

Briefly, IC50 measured for N#Cc1ccc(-c2cc(CC3CNCCO3)ccc2OC[C@@H]2CCCOC2)cc1F (stereo partly shown) : 100 to 1000 nM

Kindly note the recorded IC50 for N#Cc1ccc(-c2cc(CC3CNCCO3)ccc2N2CCC2)cc1F (stereo not shown) , which is 100 to 1000 nM

The molecule N#Cc1ccc(-c2cccc(CN3[C@@H]4CC[C@H]3[C@@H](N)C4)c2C(F)F)cc1F (racemic) showed IC50 equal to 25 to 100 nM

Noted for COCC1CCN(c2ccc(CN3[C@@H]4CC[C@H]3[C@@H](N)C4)cc2-c2ccc(C#N)c(F)c2)CC1 (racemic) : its IC50 reads 10 to 25 nM

For `N#Cc1ccc(-c2cc(CN3C[C@]4(N)CC[C@H]3C4)cc(N3CCCC3)c2)cc1F` the molecule record lists IC50 as 100 to 1000 nM
